- Test system: murine neural precursor cells (neurosphere cultures)
- assay_text: HTS of LOPAC library against secondary neurosphere cultures, MTT proliferation assay at 3 μM, day 7 (z score, P value)
- Assay type: cell-based, mouse
- condition: 168 h, 3 µM
Structures can show the parent of a compound that is named as a salt.
Quick list: Z score per entry.

>  <compound>
CCCCCCCCCCCCCCCC(=O)NCC(COP(=O)([O-])OCC[N+](C)(C)C)OCC (racemic)

>  <Z score>
−1.269

$$$$
>  <compound>
S=C(Nc1ccccc1)Nc1nccs1 [1-Phenyl-3-(2-thiazolyl)-2-thiourea]

>  <Z score>
1.208

$$$$
>  <compound>
N[C@@H](CCC(=O)N[C@@H](CSN=O)C(=O)NCC(=O)O)C(=O)O [S-Nitrosoglutathione]

>  <Z score>
0.698

$$$$
>  <compound>
Br.Br.N=C(N)SCCN

>  <Z score>
−1.251

$$$$
>  <compound>
Cn1c(=O)[nH]c2ncn(C)c2c1=O [1,7-Dimethylxanthine]

>  <Z score>
−0.662

$$$$
>  <compound>
O=c1n(CCCN2CCN(c3cccc(Cl)c3)CC2)nc2ccccn12 [Trazodone hydrochloride]

>  <Z score>
−2.644

$$$$
>  <compound>
C[C@@H](N)[C@H]1CC[C@H](C(=O)Nc2ccncc2)CC1 [Y-27632 dihydrochloride]

>  <Z score>
−0.125

$$$$
>  <compound>
CCNC(=O)[C@H]1O[C@@H](n2cnc3c(N)nc(NCCc4ccc(CCC(=O)O)cc4)nc32)[C@H](O)[C@@H]1O [CGS-21680 hydrochloride]

>  <Z score>
−1.225

$$$$
>  <compound>
NCCc1c[nH]c2ccc(O)cc12 [Serotonin hydrochloride]

>  <Z score>
−2.197

$$$$
>  <compound>
CCCCCCN(CCCCCC)C(=O)Cc1c(-c2ccc(F)cc2)[nH]c2ccccc12

>  <Z score>
1.916

$$$$
>  <compound>
COc1cccc(OC)c1OCCNCC1CSc2ccccc2O1 (centres unmarked) [Benoxathian hydrochloride]

>  <Z score>
0.265

$$$$
>  <compound>
NC(=O)c1ccccc1C(=O)N[C@@H](CCC(=O)O)C(=O)O.[Na].[Na].[Na] [Phthalamoyl-L-glutamic acid trisodium]

>  <Z score>
0.251

$$$$
>  <compound>
CC(N)=O [Acetamide]

>  <Z score>
−1.940

$$$$
>  <compound>
COC(=O)[C@@H]1[C@H]2C[C@H]3c4[nH]c5ccccc5c4CCN3C[C@@H]2CC[C@@H]1O [Yohimbine hydrochloride]

>  <Z score>
−1.656

$$$$
>  <compound>
O=C(O)C1=CC(=C(c2ccc(O)c(C(=O)O)c2)c2ccc(O)c(C(=O)O)c2)C=CC1=O [Aurintricarboxylic acid]

>  <Z score>
0.571

$$$$
>  <compound>
C[N+](C)(C)CC=O [Betaine aldehyde chloride]

>  <Z score>
−0.070

$$$$
>  <compound>
Cn1c(=O)c2[nH]c(C3CCCC3)nc2n(C)c1=O [8-Cyclopentyl-1,3-dimethylxanthine]

>  <Z score>
−0.125

$$$$
>  <compound>
O=C(O)[C@H]1C[C@H](C(=O)O)N1 (relative stereo) [trans-Azetidine-2,4-dicarboxylic acid]

>  <Z score>
−0.349

$$$$
>  <compound>
O=C1CCC(c2ccc(-n3ccnc3)cc2)=NN1 [Imazodan]

>  <Z score>
0.462

$$$$
>  <compound>
CC1(C)CCC(NC(=O)[C@@H](N)CCC(=O)O)CC1 [CR 2249]

>  <Z score>
−1.002

$$$$
>  <compound>
N[C@@H](CCCC(=O)O)C(=O)O [L-2-aminoadipic acid]

>  <Z score>
−2.334

$$$$
>  <compound>
Cc1ccccc1/C=C/C1=NCCN1 [Metrazoline oxalate]

>  <Z score>
0.107

$$$$
>  <compound>
NCCCNCCSP(=O)(O)O [Amifostine]

>  <Z score>
0.359

$$$$
